- Test system: Shionogi mouse mammary carcinoma cells
- test_details: Androgenic/antiandrogenic activity on DHT-stimulated Shionogi cell growth
- Type: cell-based
- condition_context: Mus musculus, read-out: Shionogi Antiandrogenic activity IC50 (nM), inhibition of DHT-stimulated Shionogi cell number
Please assign NO whenever IC50 is at or above 2 nM, and YES whenever it is below.

{"columns": ["molecule", "assigned_category"],
 "data": [
  ["CCCC(NC(C)C)c1cccc(OCC[C@]23C=CC4=C5CCC(=O)C=C5CCC4C2CC[C@@]3(C)O)c1 (mixture of isomers) [EM-7164]", "NO"],
  ["CCC(CC)N(C)C(CC)c1cccc(OCC[C@]23CCC4=C5CCC(=O)C=C5CCC4C2CC[C@@H]3O)c1 (mixture of isomers) [EM-6860]", "NO"],
  ["CCC(NC1CCCC1)c1cccc(OCC[C@]23CCC4C5CCC(=O)C=C5C[C@@H](C)C4C2CC[C@@H]3O)c1 (mixture of isomers) [EM-6681]", "YES"],
  ["CCC(CC)CNC(CC)(CC)c1cccc(OCC[C@]23CCC4C(CCC5CC(=O)CC[C@@]54C)C2CCC3O)c1 (some centres unmarked) [EM-7001]", "NO"],
  ["CCCC(NC(CC)CC)c1cccc(OCC[C@]23CCC4C5CCC(=O)C=C5C(C)(C)CC4C2CC[C@]3(C)O)c1 (mixture of isomers) [EM-7075]", "NO"],
  ["CCC(CC)NCc1cc(C#N)cc(OCC[C@]23CCC4C(CCC5CC(=O)CC[C@@]54C)C2CC[C@@H]3O)c1 (some centres unmarked) [EM-6509]", "YES"],
  ["CC(C)CNC1(c2cccc(OCC[C@]34CCC5C(CCC6CC(=O)CC[C@@]65C)C3CCC4O)c2)CC1 (some centres unmarked) [EM-6905]", "NO"],
  ["CCC(CC)CNC(CC)(CC)c1cccc(OCC[C@]23CCC4C(CCC5CC(=O)CC[C@@]54C)C2CCC3=O)c1 (some centres unmarked) [EM-7002]", "NO"],
  ["CCC(NC1CCOCC1)c1cccc(OCC[C@]23CCC4C(CCC5CC(=O)CC[C@@]54C)C2CC[C@@H]3O)c1 (some centres unmarked) [EM-6666]", "YES"],
  ["CCC(NC1CCS(=O)(=O)CC1)c1cccc(OCC[C@]23CCC4C(CCC5CC(=O)CC[C@@]54C)C2CCC3O)c1 (some centres unmarked) [EM-6836]", "NO"],
  ["CC(C)CN1CCCCC1c1cccc(OCC[C@]23CCC4C(CCC5CC(=O)CC[C@@]54C)C2CC[C@@H]3O)c1 (some centres unmarked) [EM-6493]", "NO"],
  ["C[C@H]1CCCCC1NCc1cccc(OCC[C@]23CCC4C(CCC5CC(=O)CC[C@@]54C)C2CC[C@@H]3O)c1 (some centres unmarked) [EM-6438]", "NO"],
  ["CCCCC(NC(CC)CC)c1cccc(OCC[C@]23CCC4C(CCC5CC(=O)CC[C@@]54C)C2CCC3O)c1 (some centres unmarked) [EM-6906]", "YES"],
  ["CC(C)CNCc1cccc(OCC[C@]23CCC4C(CCC5CC(=O)CC[C@@]54C)C2CC[C@@H]3O)c1 (some centres unmarked) [EM-6307]", "NO"]
]}

###

- Tested on: sebaceous glands of the left ear
- test_details: Topical antiandrogenic activity, ear sebaceous glands model in the male hamster
- Assay type: in vivo
- condition_context: Mesocricetus auratus, 336 h, 100 μg daily for 14 days, topical on left pinna, read-out: Antiandrogenic activity in Hamster Ear Area Inh Vs Cx (%)

{"columns": ["compound", "inhibition in vivo at 0.1 mg, %"],
 "data": [
  ["CCC(CC)NC(c1cccc(OCC[C@]23CCC4C(CCC5CC(=O)CC[C@@]54C)C2CC[C@@H]3O)c1)C(C)C (stereo partly shown) [EM-6446]", 79],
  ["CCC[C@H](NC(CC)CC)c1cccc(OCC[C@]23CCC4C(CCC5CC(=O)CC[C@@]54C)C2CC[C@@H]3O)c1 (stereo in doubt) [EM-6445]", 96],
  ["CC[C@H](NC1CCCCC1)c1cccc(OCC[C@]23CCC4C(CCC5CC(=O)CC[C@@]54C)C2CC[C@@H]3O)c1 (stereo partly shown) [EM-6415]", 84],
  ["CCC(CC)NC(CC)c1cccc(OCC[C@]23CCC4C(CCC5CC(=O)CC[C@@]54C)C2CC[C@@H]3O)c1 (stereo partly shown) [EM-6339]", 67]
]}

###

- Test system: sebaceous glands of the left ear
- test_details: Topical antiandrogenic activity, ear sebaceous glands model in the male hamster
- Type: in vivo
- condition_context: Mesocricetus auratus, 336 h, 100 μg daily for 14 days, topical on left pinna, read-out: Antiandrogenic activity in Hamster Ear Area Inh Vs Cx (%)
# inhibition in vivo at 0.1 mg per entry

{"columns": ["compound", "result_unit", "inhibition in vivo at 0.1 mg"],
 "data": [
  ["CCN(C1CCCCC1)[C@H](C)c1cccc(OCC[C@]23CCC4C(CCC5CC(=O)CC[C@@]54C)C2CC[C@@H]3O)c1 (stereo partly shown) [EM-6414]", "%", 64],
  ["CCCCCN1CCCCC1c1cccc(OCC[C@]23CCC4C(CCC5CC(=O)CC[C@@]54C)C2CC[C@@H]3O)c1 (stereo partly shown) [EM-6494]", "%", 68],
  ["CC(C)CNC(C)(C)c1cccc(OCC[C@]23CCC4C(CCC5CC(=O)CC[C@@]54C)C2CC[C@@H]3O)c1 (stereo partly shown) [EM-6534]", "%", 84],
  ["CC(C)CN1CCCCC1c1cccc(OCC[C@]23CCC4C(CCC5CC(=O)CC[C@@]54C)C2CC[C@@H]3O)c1 (stereo partly shown) [EM-6493]", "%", 63]
]}

###

- Test system: sebaceous glands of the left ear
- test_details: Topical antiandrogenic activity, ear sebaceous glands model in the male hamster
- Format: in vivo
- condition_context: Mesocricetus auratus, 336 h, 10 μg daily for 14 days, topical on left pinna, read-out: Antiandrogenic activity in Hamster Ear Area Inh Vs Cx (%)
property_measured: inhibition in vivo at 0.01 mg (%)

{"columns": ["compound", "value"],
 "data": [
  ["CCC(NC1CCCC1)c1cccc(OCC[C@]23CCC4C(CCC5CC(=O)CC[C@@]54C)C2CC[C@@H]3OC)c1 (stereo partly shown) [EM-6640]", 46.3],
  ["CCCC(NC(CC)CC)c1cccc(OCC[C@]23CCC4C(CCC5CC(=O)CC[C@@]54C)C2CCC3=O)c1 (stereo partly shown) [EM-6842]", 63.8],
  ["CC(C)CNC(C)(C)c1cccc(OCC[C@]23CCC4C(CCC5CC(=O)CC[C@@]54C)C2CCC3=O)c1 (stereo partly shown) [EM-6741]", 51.7],
  ["CC[C@H](NC1CCCCC1)c1cccc(OCC[C@]23CCC4C(CCC5CC(=O)CC[C@@]54C)C2CC[C@@H]3O)c1 (stereo partly shown) [EM-6415]", 52],
  ["CCC(CC)N(C)C(CC)c1cccc(OCC[C@]23CCC4C5CCC(=O)C=C5CCC4C2CC[C@@H]3O)c1 (stereo partly shown) [EM-6680]", 64.7],
  ["CCC(CC)NC(c1cccc(OCC[C@]23CCC4C(CCC5CC(=O)CC[C@@]54C)C2CC[C@@H]3O)c1)C(C)C (stereo partly shown) [EM-6446]", 56],
  ["CC(C)CNC(C)(C)c1cccc(OCC[C@]23CCC4C(CCC5CC(=O)CC[C@@]54C)C2CC[C@@H]3O)c1 (stereo partly shown) [EM-6534]", 48]
]}

###

- Test system: Shionogi mouse mammary carcinoma cells
- test_details: Androgenic/antiandrogenic activity on DHT-stimulated Shionogi cell growth
- Assay type: cell-based
- condition_context: Mus musculus, read-out: Shionogi Antiandrogenic activity IC50 (nM), inhibition of DHT-stimulated Shionogi cell number
# IC50 per entry

{"columns": ["compound", "IC50, nM"],
 "data": [
  ["CCC(NC1CCOCC1)c1cccc(OCC[C@]23CCC4C(CCC5Cc6nocc6C[C@@]54C)C2CCC3O)c1 (stereo partly shown)", 7.4],
  ["CCC(c1cncc(OCC[C@]23CCC4C(CCC5CC(=O)CC[C@@]54C)C2CCC3O)c1)N1CCOCC1 (stereo partly shown)", 81],
  ["CCC(CC)NCc1ccc(C#N)c(OCC[C@]23CCC4C(CCC5CC(=O)CC[C@@]54C)C2CC[C@@H]3O)c1 (stereo partly shown)", 4.7],
  ["CCC(NC1CCCCC1)c1cncc(OCC[C@]23CCC4C(CCC5=CC(=O)CC[C@@]54C)C2CCC3O)c1 (stereo partly shown)", 1.4],
  ["CN(Cc1cccc(OCC[C@]23CCC4C(CCC5CC(=O)CC[C@@]54C)C2CC[C@@H]3O)c1)C1CCCCCCC1 (stereo partly shown)", 2.9],
  ["CC1CCC(NCc2cccc(OCC[C@]34CCC5C(CCC6CC(=O)CC[C@@]65C)C3CC[C@@H]4O)c2)CC1 (stereo partly shown)", 5],
  ["CCN(C1CCCCC1)[C@H](C)c1cccc(OCC[C@]23CCC4C(CCC5CC(=O)CC[C@@]54C)C2CC[C@@H]3O)c1 (stereo partly shown)", 4]
]}

Entry source: patent US9090651B2
